tested.system: T1, recombinant mhm chimeric HGF protein containing human W507-L585 HGF sequence disposed within mouse HGF … (mouse-human-mouse chimera, UniProt Q08048 56-728)
T1 construct: CHO supernatant; also called mhm chimera (W507-L585); MHM chimera (507-585)
T1 chain: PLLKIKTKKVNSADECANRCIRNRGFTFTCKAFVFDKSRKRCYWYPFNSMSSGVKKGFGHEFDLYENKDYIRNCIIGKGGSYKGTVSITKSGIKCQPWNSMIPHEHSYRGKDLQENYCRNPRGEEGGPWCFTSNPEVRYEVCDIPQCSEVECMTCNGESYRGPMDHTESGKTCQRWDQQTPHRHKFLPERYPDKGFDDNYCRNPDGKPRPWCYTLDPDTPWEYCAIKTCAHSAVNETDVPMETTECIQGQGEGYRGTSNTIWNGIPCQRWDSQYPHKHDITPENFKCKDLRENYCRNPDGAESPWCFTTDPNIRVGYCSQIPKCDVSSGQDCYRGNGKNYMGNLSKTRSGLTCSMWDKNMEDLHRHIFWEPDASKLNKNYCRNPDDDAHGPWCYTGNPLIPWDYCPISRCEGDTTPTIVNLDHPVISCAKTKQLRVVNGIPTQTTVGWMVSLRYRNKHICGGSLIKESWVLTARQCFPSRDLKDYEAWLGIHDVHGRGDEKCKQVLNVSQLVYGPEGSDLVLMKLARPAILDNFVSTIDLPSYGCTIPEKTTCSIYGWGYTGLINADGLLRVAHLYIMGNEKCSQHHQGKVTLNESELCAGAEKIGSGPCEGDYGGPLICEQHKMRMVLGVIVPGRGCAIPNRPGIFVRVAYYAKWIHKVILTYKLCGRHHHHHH
test.description: SPR, antibody immobilized, HGF protein injected, 25 C
measured.property: binding result

1) HE2B8-4 (LRMR2B8HC + IgG1 constant region G1m(3) allotype allele 1, plus LRMR2B8LC + Kappa constant region Km(3) allotype allele 1) (antibody, V domains shown, Human Engineered 2B8 variant, human IgG1 kappa, made in HEK293E cells) VH: QVQLVQPGAEVKKPGTSVKLSCKASGYTFTTYWMHWVRQAPGQGLEWIGEINPTNGHTNYNQKFQGRATLTVDKSTSTAYMELSSLRSEDTAVYYCARNYVGSIFDYWGQGTLLTVSS VL: DIVMTQSPDSLAMSLGERVTLNCKASENVVSYVSWYQQKPGQSPKLLIYGASNRESGVPDRFSGSGSATDFTLTISSVQAEDVADYHCGQSYNYPYTFGQGTKLEIKR	binds

Measured values drawn from patent US20140178935A1 for this set.
